Assay: Pharmacokinetics of different salt forms of ocinaplon after a single oral dose
Format: in vivo
Settings: male, beagle, dog, plasma, po, 30 mg Base/kg, male beagle dogs; single oral dose 30 mg Base/kg; 0.5% methylcellulose suspension; mean (CV %), N = 5
assayEndpoint: AUC(0-t) (ng·h/mL)
Record the value in ng·h/mL, omitting the unit from your answer.

Problem: Consider the compound shown here: Br.Br.O=C(c1ccccn1)c1cnn2c(-c3ccncc3)ccnc12 What is its recorded AUC(0-t)?
Solution: 38000

* * *

Assay: Plasma pharmacokinetic comparison of zaleplon free base and HCl salt after single oral doses
Format: in vivo
Conditions: male, beagle, dog, plasma, po, 2.5 mg HCl Salt/kg, male beagle dogs; single oral dose 2.5 mg HCl Salt/kg; dog TKR-2
assayEndpoint: Tmax (min)
Numbers only; they are read as min.

Problem: Quick check: Tmax of CCN(C(C)=O)c1cccc(-c2ccnc3c(C#N)cnn23)c1.Cl [zaleplon HCl, Zaleplon Hydrochloride] ?
Solution: 30
